Measured values drawn from the supplement of paper PMC12494721 for this set.

Test system: Clostridium sporogenes DSM 1664
MEASUREMENT_NOTES: fold change of Tryptamine concentration vs plate DMSO controls (fold change (ratio)); higher = more amine produced, active = hit call of the paper (significant change in both replicates, either direction)
RUN_PARAMETERS: incubation time: 27 h, anaerobic, 37 °C
Where a name gives a salt, the structure may show the parent alone.
METRIC_NAME: fold change of Tryptamine concentration
Write the value as a bare number.

Worked cases, answers included:
CN1[C@@H]2CC[C@H]1C[C@@H](OC(=O)c1c[nH]c3ccccc13)C2 [Tropisetron hydrochloride] (20 µM) : 1.01
O=C(O)c1cn(-c2ccc(F)cc2)c2cc(N3CCNCC3)c(F)cc2c1=O [Sarafloxacin] (20 µM) : 0.0563
Nc1nc2c(ncn2COC(CO)CO)c(=O)[nH]1 [Ganciclovir] (20 µM) : 1.06

Specify measured fold change of Tryptamine concentration for CC(C)(C)NC[C@H](O)COc1nsnc1N1CCOCC1 [Timolol maleate salt] (20 µM) .
1.03

Specify measured fold change of Tryptamine concentration for Cc1c(Cl)cccc1Nc1ccccc1C(=O)O [Tolfenamic acid] (20 µM) .
0.901

Specify measured fold change of Tryptamine concentration for CC(C)(C)NCC(O)COc1cccc2c1CCC(=O)N2 (configuration not stated) [Carteolol hydrochloride] (20 µM) .
0.985

Specify measured fold change of Tryptamine concentration for Cc1ncc([N+](=O)[O-])n1C [Dimetridazole] (20 µM) .
0.0153

Specify measured fold change of Tryptamine concentration for CO/N=C1\CN(c2nc3c(cc2F)c(=O)c(C(=O)O)cn3C2CC2)CC1CN (configuration not stated) [Gemifloxacin mesylate] (20 µM) .
0.0398

Specify measured fold change of Tryptamine concentration for OC[C@H]1O[C@@](CO)(O[C@H]2O[C@H](CO)[C@@H](O)[C@H](O)[C@H]2O)[C@@H](O)[C@@H]1O [Sucrose] (50 µM) .
1.07

Specify measured fold change of Tryptamine concentration for CC(C)Oc1ccc2c(=O)c(-c3ccccc3)coc2c1 [Ipriflavone] (20 µM) .
1.01

Specify measured fold change of Tryptamine concentration for CCN(CC)CCOc1ccc(C(=C(Cl)c2ccccc2)c2ccccc2)cc1 [(Z,E) Clomiphene citrate] (20 µM) .
1.05

Specify measured fold change of Tryptamine concentration for O=C(NCCO[N+](=O)[O-])c1cccnc1 [Nicorandil] (20 µM) .
1.04
